Data origin: patent US20190119200A1

# Tgt: LPAR1 (Homo sapiens)
# Construct: host or cells: U2OS
# Test description: LPAR1 FLIPR Assay
# Format: cell-based
# Condition: U2OS cells stably expressing LPAR1; LPA (EC80); Calcium 6 FLIPR dye
Quantity: pIC50
Quick note: pIC50 values are minus log10 of concentrations in mol/L.

Please report the measured pIC50 for `COc1cc(C(=O)N(CCCCC(=O)O)CCCc2ccccc2)cc(OC)n1`
7.28

Please report the measured pIC50 for `COc1cc(C(=O)N(CCCCC(=O)O)CCCc2cccc(C)c2)cc(OC)c1C`
7.82

Please report the measured pIC50 for `COc1cc(OC)cc(C(=O)N(CCCCC(=O)O)CCCc2c(F)cccc2F)c1`
7.04

Please report the measured pIC50 for `COc1cc(C(=O)N(CCCCC(=O)O)CCCc2cccc(C(F)(F)F)c2)cc(OC)c1C`
4.53

Please report the measured pIC50 for `COc1cc(C(=O)N(CCCc2ccccc2)CCOC(C)(C)C(=O)NS(C)(=O)=O)cc(OC)c1C`
7.68

* * *

# Tgt: LPAR1 (Homo sapiens, UniProt Q92633)
# Construct: host or cells: U2OS
# Sequence (Q92633 whole entry): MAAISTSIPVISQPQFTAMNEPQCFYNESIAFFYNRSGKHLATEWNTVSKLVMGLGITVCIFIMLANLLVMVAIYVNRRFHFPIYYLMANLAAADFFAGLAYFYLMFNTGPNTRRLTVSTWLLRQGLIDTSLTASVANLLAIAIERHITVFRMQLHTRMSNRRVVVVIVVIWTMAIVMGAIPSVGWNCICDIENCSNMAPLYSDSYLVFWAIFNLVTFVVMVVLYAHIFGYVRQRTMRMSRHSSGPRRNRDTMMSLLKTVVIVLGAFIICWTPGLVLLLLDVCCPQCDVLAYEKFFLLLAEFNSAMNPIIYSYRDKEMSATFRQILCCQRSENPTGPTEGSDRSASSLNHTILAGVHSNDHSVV
# Test description: LPAR1 Arrestin Assay (arrestin reporter assay)
# Type: cell-based
# Condition: U2OS cells stably expressing the LPAR1 receptor; 200 nM 18:1 LPA (EC80)
Record form. Attribute: IC50. Fill in for each entry.
Please respond with the number in nM and leave the unit unwritten.

Please report the measured IC50 for COc1cc(C(=O)N(CCCCC(=O)O)CCCc2cccc(F)c2)cc(OC)c1C [Example 33]
71

Please report the measured IC50 for COc1cc(C(=O)N(CCCc2ccc(F)cc2F)CCOCC(=O)O)cc(OC)c1C [Example 130]
760

Please report the measured IC50 for COc1cc(C(=O)N(CCCc2cccc(Cl)c2)CCSCC(=O)O)cc(OC)c1C [Example 122]
152

Please report the measured IC50 for COc1cc(C(=O)N(CCCCC(=O)O)CCCc2ccccc2)cc(OC)c1OC [Example 10]
674

Please report the measured IC50 for COc1ccc(C2(C(=O)N(CCCCC(=O)O)CCCc3ccccc3)COC2)cc1 [Example 89]
445

Please report the measured IC50 for COc1cc(C(=O)N(CCCc2ccccc2Cl)CCOCC(=O)O)cc(OC)c1C [Example 131]
2140

Please report the measured IC50 for COc1cc(C(=O)N(CCCc2ccccc2)CC(=O)NC(C)(C)C(=O)O)cc(OC)c1C [Example 45]
494

Please report the measured IC50 for COc1cc(OC)cc(C(=O)N(CCCCC(=O)O)CCCc2ccccc2)c1 [Example 7]
713

Please report the measured IC50 for COc1cc(C(=O)N(CCCc2cccc(F)c2)CCOCC(=O)O)cc(OC)c1C [Example 129]
218

Please report the measured IC50 for COc1cc(C(=O)N(CCCCC(=O)O)CCCc2ccc(C)o2)c(F)c(OC)c1F [Example 175]
5680

Please report the measured IC50 for COc1cc(C(=O)N(CCCCC(=O)O)CCCc2ccccc2)c(F)c(OC)c1F [Example 30]
618

Please report the measured IC50 for COc1cc(C(=O)N(CCCc2ccc(C)o2)CCSCC(=O)O)cc(OC)c1C [Example 132]
490

Please report the measured IC50 for COc1cc(C(=O)N(CCCCC(=O)NS(C)(=O)=O)CCCc2ccccc2)cc(OC)c1C [Example 111]
93

Please report the measured IC50 for COc1ccc(C2(C(=O)N(CCCc3ccccc3)CCSCC(=O)O)CC2)cc1 [Example 115]
1080

Please report the measured IC50 for COc1cc(C(=O)N(CCCCC(=O)O)CCCc2c(F)cccc2F)cc(OC)c1C [Example 147]
178

Please report the measured IC50 for COc1cc(C(=O)N(CCCc2cccc(Cl)c2)CCOCC(=O)O)cc(OC)c1C [Example 109]
139

Please report the measured IC50 for COc1cc(OC)c(Cl)c(C(=O)N(CCCCC(=O)O)CCCc2ccccc2)c1 [Example 39]
1210

Please report the measured IC50 for COc1cc(C(=O)N(CCCc2cccc(F)c2)CCSCC(=O)O)cc(OC)c1C [Example 117]
103

Please report the measured IC50 for COc1cc(OC)cc(C(=O)N(CCCCC(=O)O)CCCc2cccc(F)c2)c1 [Example 90]
675

Please report the measured IC50 for COc1cc(OC)c(F)c(C(=O)N(CCCCC(=O)O)CCCc2ccccc2)c1 [Example 58]
636

Please report the measured IC50 for COc1cc(C(=O)N(CCCc2ccccc2)CCOCP(=O)(O)O)cc(OC)c1C [Example 50]
1
